# System: SAS cells
# test.method.notes: SAS CTG proliferation assay (120 h) (HNSCC, wt amplified)
# Type: cell-based
reported.property: pIC50
Answers are plain numbers, as −log10 of the molar value.

Solved cases below.
[
  {
    "record.smiles": "C[C@H](Oc1cc(-n2ccc(C(=O)N(C)C3COC3)n2)nc(-c2noc3c2CCC[C@@]32CCCc3sc(N)c(C#N)c32)n1)[C@@H]1CCCN1C",
    "pIC50": 7.43
  },
  {
    "record.smiles": "Cc1cn(-c2cc(O[C@@H](C)[C@@H]3CCCN3C)nc(-c3noc4c3CCC[C@@]43CCCc4sc(N)c(C#N)c43)n2)nn1",
    "pIC50": 7.02
  },
  {
    "record.smiles": "C[C@H](Oc1cc(N2C[C@H](C)NC3(CC3)C2)nc(-c2onc3c2CCC[C@@]32CCCc3sc(N)c(C#N)c32)n1)[C@@H]1CCCN1C",
    "pIC50": 6.88
  }
]

Attention now shifts to the item below.
Measured pIC50, C[C@H](Oc1cc(-c2cc[nH]n2)nc(-c2noc3c2CCC[C@@]32CCCc3sc(N)c(C#N)c32)n1)[C@@H]1CCCN1C : 7.33

Cited source for all entries: patent US20240174690A1
